subject-of-test: T1, IRF4 DBD C99S (Homo sapiens, UniProt Q15306 20-132, C99S)
T1 sequence: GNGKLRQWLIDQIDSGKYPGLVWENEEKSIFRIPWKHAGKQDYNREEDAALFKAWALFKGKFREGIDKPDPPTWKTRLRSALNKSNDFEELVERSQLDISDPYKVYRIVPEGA
assay-procedure: SPR two-state kinetic; FP: PBS + 0.05% Tween20, 5 nM DNA, 1 h, room temperature; SPR: Biacore S200, SA chip, protein 0.1-4500 nM, running buffer not given in material; errors are SD
assay-conditions: protein: recombinant; label: 3' biotin; hairpin, TTTT loop

>  <binder>
CTTGGTTTCACTTCCTGCGTTTTCGCAGGAAGTGAAACCAAG (structured_DNA) [IRE hairpin (biotin)]

>  <Kd>
139 nM

$$$$
